System: K-562 leukemia
test_protocol: NCI-60 one-dose screen, 48 h (100 = growth as untreated, 0 = no growth, -100 = all killed)
particulars: 10 µM unless noted
The panel holds about 83,000 compounds, 20% with a hit somewhere; the sample as a whole holds those more often. Activity calls are given as the source filed them. The calls were made as follows: active = growth percent below 10; inactive = the rest.

molecule: CCOC(=O)Oc1c(OC)cc(C(=O)c2ccc(OC)c(O)c2OC)cc1OC
growth: 10.8% (inactive)

molecule: CCNC(=O)Oc1ccc(/C(=C(\C)c2ccccc2)c2ccc(OCCN(CC)CC)cc2)cc1
growth: 18.9% (inactive)

molecule: CC1(C)CC(=O)C2=C(C1)N(c1ccc(F)cc1F)C(N)=C(C#N)C2c1cc(Br)ccc1F (stereo unspecified)
growth: 87.6% (inactive)

molecule: CCC(=O)Oc1ccc(/C(=C(\C)c2ccccc2)c2ccc(OCCN3CCCCC3)cc2)cc1
growth: 17.1% (inactive)

molecule: CCOC(=O)c1cc(C(=O)c2ccc(OC)c(OC)c2)n2c1ccc1ccccc12
growth: 86.8% (inactive)

molecule: CC(=O)N1c2ccccc2NC2=C(C(=O)NC2(C)C)C1c1ccco1 (stereo unspecified)
growth: 77.1% (inactive)

molecule: CCNC(=O)Oc1ccc(/C(=C(\C)c2ccccc2)c2ccc(OCCCN(C)C)cc2)cc1
growth: 14.4% (inactive)

molecule: COc1cccc(-c2nc3occn3c2-c2ccnc(NCCNS(=O)(=O)c3ccc(C(F)(F)F)cc3)n2)c1
growth: 71.6% (inactive)

molecule: CCOC(=O)CSc1nc2ccccc2c(=O)n1Cc1ccc(S(N)(=O)=O)cc1
growth: 97.1% (inactive)

molecule: O=C(Cc1ccccc1)NNc1nc(Cl)nc(N2CCN(C(c3ccccc3)c3ccccc3)CC2)n1
growth: 9.78% (active)

molecule: O=S(=O)(NCCNc1nccc(-c2c(-c3cccc(F)c3)nc3sccn23)n1)c1ccc(Cl)cc1
growth: 41.3% (inactive)

====

Test system: CAKI-1 renal
test_protocol: NCI-60 one-dose screen, 48 h
particulars: 10 µM unless noted
This is part of a sample that, as a whole, favours compounds with a hit. Of some 83,000 tested, about 20% had one in any assay. Calls of active or inactive are those of the source. How the source made its calls: active means growth percent below 10; inactive means the rest.
Outcomes: active, inactive

compound: CC(=O)Oc1ccc(/C=N/NC(N)=S)nc1
class_assignment: inactive
--
compound: C[C@H]1[C@H](C)CC[C@]2(C(=O)Nc3ccc4ncccc4c3)CC[C@]3(C)C(=CC[C@@H]4[C@@]5(C)CCCNC(C)(C)[C@@H]5CC[C@]43C)[C@H]12
class_assignment: inactive
--
compound: NC(=NCCCOc1ccc(F)cc1)Nc1ccc(Cl)cc1
class_assignment: inactive
--
compound: O=C1c2ccccc2C(=O)c2c([N+](=O)[O-])ccc(Cl)c21
class_assignment: inactive
--
compound: CC(=O)Nc1ccc(-n2cnc3cc(-c4ccc(OCCN5CCCCC5)cc4)ccc32)cc1
class_assignment: inactive
--
compound: Cc1cc2c(C(=O)NCC#N)cccc2n1-c1nc2c(c(NCc3ccccc3)n1)CCCC2
class_assignment: active
--
compound: O=S(=O)(NCCNc1nccc(-c2c(-c3cccc(O)c3)nc3occn23)n1)c1ccc(Cl)cc1
class_assignment: inactive
--
compound: c1ccc(-c2c(-c3ccccc3)[n+](Cc3ccc4ccccc4c3)c(-c3cccc4ccccc34)n2Cc2ccc3ccccc3c2)cc1
class_assignment: active
--
compound: N#Cc1c(-c2cccc([N+](=O)[O-])c2)nc(SCC(=O)c2ccc(Cl)cc2)[nH]c1=O
class_assignment: inactive
--
compound: O=C(C1CCC1)N1N=C(c2ccc(-n3ccc(C(F)(F)F)n3)cc2)CC1c1ccc[nH]1 (stereo not given)
class_assignment: inactive
--
compound: COc1cc(C(=O)Nc2cc3c(cc2Oc2cc(C)cc(C)c2)C(=O)N(C)[C@@H](CC(=O)N(C)O)C(=O)N3)c(Br)c(OC)c1OC
class_assignment: active
--
compound: O=[N+]([O-])CC(c1ccccc1F)c1c[nH]c2ccccc12 (stereo not given)
class_assignment: inactive
--
compound: COc1ccc(/C=C2\Oc3cc(OCCCN4CCCCC4)ccc3C2=O)cc1OC
class_assignment: inactive
--
compound: COC(=O)c1ccc2c(c1)[n+](=O)c(C(C)=O)c(C(F)(F)F)n2[O-]
class_assignment: active
--
compound: O=C(CCN1CCCC1)c1ccc([N+](=O)[O-])cc1
class_assignment: inactive
--
compound: COc1ccc(C(=O)Cn2c(C(=O)c3ccccc3)nc3ccccc32)cc1
class_assignment: inactive
--
compound: N/C(=N\C(N)=N\c1nc2ccccc2s1)c1cccc(Cl)c1
class_assignment: inactive
--
compound: COc1ccc(Cc2cnc(NC(=O)c3ccc4c(c3)OCCO4)s2)cc1
class_assignment: inactive
--
compound: Cc1ccc(-c2csc(NC(=O)CSc3nc(-c4ccccc4)cc(=O)[nH]3)n2)cc1
class_assignment: inactive
--
compound: CC(=O)Nc1ccc(-c2ccc3c(c2)NC(=O)/C3=C\c2ccc[nH]2)cc1
class_assignment: inactive
--
compound: O=S(=O)(NCCNc1nccc(-c2c(-c3cccc(O)c3)nc3occn23)n1)c1ccc(C(F)(F)F)cc1
class_assignment: inactive
--
compound: C=C(C)[C@@H]1CC[C@]2(C(=O)N3CCN(C)CC3)CC[C@]3(C)[C@H](CC[C@@H]4[C@@]5(C)CC[C@H](OCCC#N)C(C)(C)[C@@H]5CC[C@]43C)[C@@H]12
class_assignment: inactive
--
compound: O=S(=O)(NCCNc1nccc(-c2c(-c3cccc(F)c3)nc3sccn23)n1)c1ccc(Br)cc1
class_assignment: inactive
--
compound: O=C(Cc1ccccc1)NNc1nc(Cl)nc(N2CCN(C(c3ccccc3)c3ccccc3)CC2)n1
class_assignment: inactive
--
compound: O=C1CC(=O)OC(c2ccc([N+](=O)[O-])cc2)O1
class_assignment: active
--
compound: COc1cc2cc(Oc3cccc(NC(=O)Nc4cc(C(F)(F)F)cc(C(F)(F)F)c4)c3)c(C)nc2cc1OC
class_assignment: active
--
compound: Cc1c(C)c([N+](=O)[O-])c(C)c([N+](=O)[O-])c1C
class_assignment: inactive
--
compound: O=C(NNc1nc2c(F)cccc2n2cccc12)c1cnccn1
class_assignment: inactive
--
compound: Nc1c(C(=O)Nc2cccc3cnccc23)sc2nc3c(cc12)CN(Cc1ccccc1)CC3
class_assignment: inactive
--
compound: C=C(C)[C@@H]1CC[C@]2(C(=O)N3CCN(C)CC3)CC[C@]3(C)[C@H](CC[C@@H]4[C@@]5(C)C/C(=C/c6cccnc6)C(=O)C(C)(C)[C@@H]5CC[C@]43C)[C@@H]12
class_assignment: inactive
--
compound: COc1c(Cl)c2c(c(OC)c1OC)-c1ccc(SC)c(=O)cc1[C@@H](NC(=O)OCC(F)(F)F)CC2
class_assignment: inactive
--
compound: O=C(/C=C/c1c(-c2ccc(Cl)cc2)nn(-c2ccccc2)c1C(F)(F)F)c1ccc(Cl)cc1
class_assignment: inactive
--
compound: C/C(=N\NC(=O)CSc1nc2ccccc2c(=O)n1CCc1ccc(S(N)(=O)=O)cc1)c1ccccn1
class_assignment: inactive
--
compound: CCCCCCCCCCCCCCCC[N+]1(C)CCN(SN2CC[N+](C)(CCCCCCCCCCCCCCCC)CC2)CC1
class_assignment: inactive
--
compound: O=C(Cc1ccc(/C=C/C(=O)c2ncc[nH]2)cc1)Nc1ccc(Cl)cc1
class_assignment: inactive
